Test system: up to 32 different microorganisms
Assay: in vitro antibacterial activity (MIC), agar dilution on Brain Heart Infusion (BHI) agar with Steers replicator
Type: cell-based
Conditions: Escherichia coli JUHL (code QQ); unit assumed
Protocol: Representative compounds of the present invention were assayed in vitro for antibacterial activity as follows: Twelve petri dishes containing successive aqueous dilutions of the test compound mixed with 10 mL of sterilized Brain Heart Infusion (BHI) agar (Difco 0148-01-5) were prepared. Each plate was inoculated with 1:100 (or 1:10 for slow-growing strains, such as Micrococcus and Streptococcus) dilutions of up to 32 different microorganisms, using a Steers replicator block. […]
value_kind: MIC

CC[C@H]1OC(=O)[C@H](C)C(=O)[C@H](C)[C@@H](O[C@@H]2O[C@H](C)C[C@H](N(C)C)[C@H]2O)[C@@](C)(OCCCc2cnc3ccccc3c2)C[C@@H](C)C2=NCCN3C(=O)O[C@@]1(C)[C@H]3[C@H]2C    25 µg/mL
CC[C@H]1OC(=O)[C@H](C)C(=O)[C@H](C)[C@@H](O[C@@H]2O[C@H](C)C[C@H](N(C)C)[C@H]2O)[C@@](C)(OCC=Cc2ccccc2)C[C@@H](C)C(=O)[C@H](C)[C@H]2NC(=O)O[C@@]21C    100 µg/mL
CCC1OC(=O)C(C)C(=O)C(C)C(OC2OC(C)CC(N(C)C)C2O)C(C)(OCC=Cc2cnc3ccccc3c2)CC(C)C(=O)C(C)C2N(CC=Cc3cnc4ccccc4c3)C(=O)OC12C (stereo not drawn)    > 100 µg/mL
C=CCO[C@@]1(C)C[C@@H](C)C(=O)[C@H](C)[C@H]2OC(=O)O[C@]2(C)[C@@H](CC)OC(=O)[C@H](C)C(=O)[C@H](C)[C@H]1O[C@@H]1O[C@H](C)C[C@H](N(C)C)[C@H]1O    > 100 µg/mL
CC[C@H]1OC(=O)[C@H](C)C(=O)[C@H](C)[C@@H](O[C@@H]2O[C@H](C)C[C@H](N(C)C)[C@H]2O)[C@@](C)(OCc2ccc3ccccc3c2)C[C@@H](C)C(=O)[C@H](C)[C@H]2NC(=O)O[C@@]21C    > 100 µg/mL
C=CCOC1(C)CC(C)C(=O)C(C)C2N(CC=C)C(=O)OC2(C)C(CC)OC(=O)C(C)C(=O)C(C)C1OC1OC(C)CC(N(C)C)C1O (stereo not drawn)    > 100 µg/mL
CCC1OC(=O)C(C)C(=O)C(C)C(OC2OC(C)CC(N(C)C)C2O)C(C)(OCC=Cc2ccc3ccccc3c2)CC(C)C(=O)C(C)C2NC(=O)OC12C (stereo not drawn)    > 100 µg/mL
CCC1OC(=O)C(C)C(=O)C(C)C(OC2OC(C)CC(N(C)C)C2O)C(C)(OCC=Cc2ccc3ncccc3c2)CC(C)C(=O)C(C)C2NC(=O)OC12C (stereo not drawn)    50 µg/mL
CCC1OC(=O)C(C)C(=O)C(C)C(OC2OC(C)CC(N(C)C)C2O)C(C)(OCC=Cc2cnc3ccccc3c2)CC(C)C(=O)C(C)C2N(CCN(C)C)C(=O)OC12C (stereo not drawn)    > 100 µg/mL

---

System: up to 32 different microorganisms
Experiment: in vitro antibacterial activity (MIC), agar dilution on Brain Heart Infusion (BHI) agar with Steers replicator
Assay type: cell-based
Conditions: Candida albicans CCH 442 (code TT); unit assumed
value_kind: MIC

CCC1OC(=O)C(C)C(=O)C(C)C(OC2OC(C)CC(N(C)C)C2O)C(C)(OCC=Cc2cccc3ncccc23)CC(C)C(=O)C(C)C2NC(=O)OC12C (centres unmarked)    > 100 µg/mL
CCC1OC(=O)C(C)C(=O)C(C)C(OC2OC(C)CC(N(C)C)C2O)C(C)(OCC=Cc2cnc3ccccc3c2)CC(C)C(=O)C(C)C2N(CCN(C)C)C(=O)OC12C (centres unmarked)    > 100 µg/mL
CC[C@H]1OC(=O)[C@H](C)C(=O)[C@H](C)[C@@H](O[C@@H]2O[C@H](C)C[C@H](N(C)C)[C@H]2O)[C@@](C)(OCCCc2ccccc2)C[C@@H](C)C(=O)[C@H](C)[C@@H](O)[C@]1(C)O    > 100 µg/mL
CC[C@H]1OC(=O)[C@H](C)C(=O)[C@H](C)[C@@H](O[C@@H]2O[C@H](C)C[C@H](N(C)C)[C@H]2O)[C@@](C)(OCCNCc2ccccc2)C[C@@H](C)C(=O)[C@H](C)[C@@H](O)[C@]1(C)O    > 100 µg/mL
CC[C@H]1OC(=O)[C@H](C)C(=O)[C@H](C)[C@@H](O[C@@H]2O[C@H](C)C[C@H](N(C)C)[C@H]2O)[C@@](C)(OCc2ccc3ccccc3c2)C[C@@H](C)C(=O)[C@H](C)[C@@H](O)[C@]1(C)O    100 µg/mL

---

System: up to 32 different microorganisms
Assay: in vitro antibacterial activity (MIC), agar dilution on Brain Heart Infusion (BHI) agar with Steers replicator
Format: cell-based
Details: Streptococcus bovis A-5169 (code JJ); unit assumed
value_kind: MIC

CCC1OC(=O)C(C)C(=O)C(C)C(OC2OC(C)CC(N(C)C)C2O)C(C)(OCC=Cc2cccc3cccnc23)CC(C)C(=O)C(C)C2NC(=O)OC12C (stereo not drawn) [Example 189, R is —CH2CH-(8-quinolyl)]    ≤ 0.005 µg/mL
C=CCO[C@@]1(C)C[C@@H](C)C(=O)[C@H](C)[C@H]2N(C)C(=O)O[C@]2(C)[C@@H](CC)OC(=O)[C@H](C)C(=O)[C@H](C)[C@H]1O[C@@H]1O[C@H](C)C[C@H](N(C)C)[C@H]1O [Example 179]    0.39 µg/mL
CCC1OC(=O)C(C)C(=O)C(C)C(OC2OC(C)CC(N(C)C)C2OC(C)=O)C(C)(OCC=Cc2cnc3ccccc3c2)CC(C)C(=O)C(C)C2NC(=O)OC12C (stereo not drawn) [Example 198]    ≤ 0.005 µg/mL

---

Test system: up to 32 different microorganisms
Assay: in vitro antibacterial activity (MIC), agar dilution on Brain Heart Infusion (BHI) agar with Steers replicator
Assay type: cell-based
Conditions: organism code QQ; unit assumed
// reported MIC for each item listed
value_kind: MIC (µg/mL)

CCC1OC(=O)C(C)C(=O)C(C)C(OC2OC(C)CC(N(C)C)C2O)C(C)(OCC2CC2c2cnc3ccccc3c2)CC(C)C(=O)C(C)C2NC(=O)OC12C (stereo not drawn)    50
CCC(=O)OC1C(OC2C(C)C(=O)C(C)C(=O)OC(CC)C3(C)OC(=O)NC3C(C)C(=O)C(C)CC2(C)OCC=Cc2cnc3ccccc3c2)OC(C)CC1N(C)C (stereo not drawn)    50

---

Tested on: up to 32 different microorganisms
Assay: in vitro antibacterial activity (MIC), agar dilution on Brain Heart Infusion (BHI) agar with Steers replicator
Assay type: cell-based
Settings: Nocardia Asteroides ATCC9970 (code VV); unit assumed
Note to self: use TRUE only for MIC readings below 0.4 µg/mL; a reading exactly at 0.4 µg/mL still gets FALSE.

CC[C@H]1OC(=O)[C@H](C)C(=O)[C@H](C)[C@@H](O[C@@H]2O[C@H](C)C[C@H](N(C)C)[C@H]2O)[C@@](C)(OCC=Cc2cnc3ccccc3c2)C[C@@H](C)C(=O)[C@H](C)[C@H]2NC(=O)O[C@@]21C    TRUE
CCC1OC(=O)C(C)C(=O)C(C)C(OC2OC(C)CC(N(C)C)C2O)C(C)(OCC=Cc2cnc3ccc([N+](=O)[O-])cc3c2)CC(C)C(=O)C(C)C2NC(=O)OC12C (stereo not drawn)    TRUE
CCC1OC(=O)C(C)C(=O)C(C)C(OC2OC(C)CC(N(C)C)C2O)C(C)(OCC=Cc2ccc3c(c2)OCCO3)CC(C)C(=O)C(C)C2NC(=O)OC12C (stereo not drawn)    TRUE
CC[C@H]1OC(=O)[C@H](C)C(=O)[C@H](C)[C@@H](O[C@@H]2O[C@H](C)C[C@H](N(C)C)[C@H]2O)[C@@](C)(OCc2ccc3ccccc3c2)C[C@@H](C)C(=O)[C@H](C)[C@H]2NC(=O)O[C@@]21C    FALSE
CCC1OC(=O)C(C)C(=O)C(C)C(OC2OC(C)CC(N(C)C)C2O)C(C)(OCC=Cc2cccnc2)CC(C)C(=O)C(C)C2NC(=O)OC12C (stereo not drawn)    TRUE
CCC1OC(=O)C(C)C(=O)C(C)C(OC2OC(C)CC(N(C)C)C2O)C(C)(OCC=Cc2cnc3ccccc3c2)CC(C)C(=O)C(C)C2N(CC=Cc3cnc4ccccc4c3)C(=O)OC12C (stereo not drawn)    FALSE
C=CCOC1(C)CC(C)C(=NO)C(C)C(O)C(C)(O)C(CC)OC(=O)C(C)C(=O)C(C)C1OC1OC(C)CC(N(C)C)C1O (stereo not drawn)    TRUE
CC[C@H]1OC(=O)[C@H](C)C(=O)[C@H](C)[C@@H](O[C@@H]2O[C@H](C)C[C@H](N(C)C)[C@H]2O)[C@@](C)(OCCCc2ccccc2)C[C@@H](C)C(=O)[C@H](C)[C@@H](O)[C@]1(C)O    FALSE
